meta.source: PubChem BioAssay (NCI)

test system: HS 578T breast; test: NCI tumour cell line growth inhibition, 48 h
Rule: TGI under 20 µM gives criterion not met, otherwise criterion met.

Field: example entries. Status: answers known.
molecule	system tested	category
Cc1cc(/C=C\c2ccc3ccccc3[n+]2C)c(O)c2ncccc12	HS 578T breast	criterion not met
Cn1nc2n(c1=O)CCCN2	HS 578T breast	criterion met
NC(=S)N/N=C\c1ccc(OCc2cccc(COc3ccc(/C=N/NC(N)=S)cc3)n2)cc1	HS 578T breast	criterion met
COc1ccc2c(c1)C(N)=C(c1ccccc1)C2=O	HS 578T breast	criterion met
CCc1c(Cc2cccc3ccccc23)n2c(nc1=O)SCC2OCCO (configuration not stated)	HS 578T breast	criterion met

Is reported TGI greater than or equal to 20 µM here: COc1ccc(-c2cc(=O)c3c(C)cc(C)nc3[nH]2)cc1 criterion met

Is reported TGI greater than or equal to 20 µM here: Cc1nc2c3c(ncn2n1)Oc1c(c(-c2ccccc2)nn1-c1ccccc1)C3c1ccc(Cl)cc1 (configuration not stated) criterion met

Is reported TGI greater than or equal to 20 µM here: CC(C)CNCC(O)COc1ccc(C(C)(C)c2ccc(OCC(O)CNCC(C)C)cc2)cc1 (configuration not stated) criterion met

Is reported TGI greater than or equal to 20 µM here: COc1cc2c(c(OC)c1OC)-c1ccc(N)c(=O)cc1[C@@H](NC(C)=O)CC2 criterion met

Is reported TGI greater than or equal to 20 µM here: O=C1C=C(NCCNC(=S)Nc2ccccc2)c2nccc3c2c1nc1ccccc13 criterion met

Is reported TGI greater than or equal to 20 µM here: COc1ccc(-c2oc3c(OC)c(OC)c(OC)c(O)c3c(=O)c2OC)cc1OC criterion not met

###

system: RPMI-8226 leukemia; assay: NCI tumour cell line growth inhibition, 48 h
Listed here: items and their measured TGI.

Some solved entries appear below for comparison.
compound	TGI
CSC(CC(=O)O)C(=O)O (stereo not given)	> 100 µM
O=C(CSCC(=O)N/N=C/c1cccs1)N/N=C/c1cccs1	> 100 µM
O=c1[nH]c(=O)n([C@@H]2C[C@H](CO)[C@H](O)C2)cc1/C=C/Br	> 100 µM

Record request: TGI value, item c1ccc(CCNCc2ccco2)nc1 > 67.9 µM

Record request: TGI value, item CCCn1c(SC)nc(COC(=O)NC)c1COC(=O)NC > 100 µM

Record request: TGI value, item O=C(/C(=C\C(=O)c1cccs1)c1ccsc1)c1ccc(Br)cc1 > 100 µM

###

Listed here: items and their measured TGI.
test system: SNB-75 CNS; test: NCI tumour cell line growth inhibition, 48 h
Numeric only. Scale: µM

Some solved entries appear below for comparison.
compound	TGI (µM)
C=C(CCCCCCCCC)CC(=O)SCCNC(=O)CCNC(=O)C(O)C(C)(C)COP(=O)(O)OP(=O)(O)OCC1OC(n2cnc3c(N)ncnc32)C(O)C1OP(=O)(O)O (stereo not given)	58.8
COc1ccc(/C=c2\[nH]c3nc(=O)c(N4CCOCC4)c(N)n3c2=O)cc1	64.5

Record request: TGI value, item CC(=O)O[C@@H]1C[C@@]23C[C@@]24CC[C@H](OC2OCC(O)C(O)C2O)C(C)(C)[C@@H]4CC=C3[C@]2(C)C[C@@H]3OC4(C[C@@H](C)[C@@H]3[C@@]12C)OC(O)[C@@]1(C)O[C@@H]41 (stereo not given in full) 58.7

###

tested on: M14 melanoma; assay: NCI tumour cell line growth inhibition, 48 h
Listed here: items and their measured GI50.

Some solved entries appear below for comparison.
molecule	GI50
C=C1SC(=Nc2c(C)cc(C)cc2C)N(C(=O)c2sc3ccccc3c2Cl)C12CCCCC2	> 100 µM
CC(C)CNCC(O)COc1ccc(C(C)(C)c2ccc(OCC(O)CNCC(C)C)cc2)cc1 (stereo not given)	1.76 µM
O=C1C=C(NCCNC(=S)Nc2ccccc2)c2nccc3c2c1nc1ccccc13	39.3 µM

Record request: GI50 value, item CCN(CC)CCNc1ccc([N+](=O)[O-])c2sc3ccccc3c(=O)c12 1.36 µM

Record request: GI50 value, item COc1ccc(-c2nc3sc(-c4ccc(Cl)cc4)cn3n2)cc1 > 50 µM

###

tested on: SW-620 colon; assay: NCI tumour cell line growth inhibition, 48 h
Listed here: items and their measured TGI.

Record request: TGI value, item CCC(=O)O[C@H]1CC[C@H]2[C@@H]3CC[C@H]4CC(=O)[C@H](C)C[C@]4(C)[C@H]3CC[C@]12C > 100 µM

Record request: TGI value, item Nc1nc(-c2ccccc2N=NN2CCCC2)nc2ccccc12 5.96 µM

Record request: TGI value, item Cn1nc(-c2ccccc2)c(C(=O)/C=C/c2ccc(F)cc2)c(N2CCCCC2)c1=O 45.3 µM

Record request: TGI value, item CC[N+]1(C)CCC(O)(/C=C/c2ccc(OC)cc2)C(C(=O)/C=C/c2ccc(OC)cc2)C1 (configuration not stated) 7.42 µM

Record request: TGI value, item CCOC(=O)C1(C(=O)OCC)[C@H](c2ccccc2)C2=NO[C@@H]3CCC[C@H]1[C@H]23 > 100 µM

Record request: TGI value, item COc1cc2c(cc1OCCCC(=O)Nc1cc(C(=O)Nc3cc(C(=O)Nc4cc(C(=O)NCCCN(C)C)n(C)n4)n(C)n3)n(C)n1)N=CC1CCCN1C2=O (configuration not stated) > 100 µM

Record request: TGI value, item Cc1c(S(C)(=O)=O)c(-c2cc(F)cc(N3CCN(c4ccc(NS(=O)(=O)c5ccc(N[C@H](CCN6CCC(C(=O)OCCCP(=O)(O)O)CC6)CSc6ccccc6)c(S(=O)(=O)C(F)(F)F)c5)cc4)CC3)c2)c(-c2ccc(Cl)cc2)n1C(C)C > 100 µM

Record request: TGI value, item COc1ccc(-c2nc3sc(-c4ccc(Cl)cc4)cn3n2)cc1 > 50 µM

Record request: TGI value, item CC1OC(OCC2OC(Oc3c(-c4ccc(O)cc4)oc4cc(O)cc(O)c4c3=O)C(OC3OC(C)C(O)C(O)C3O)C(O)C2O)C(O)C(O)C1O (configuration not stated) > 62.4 µM

Record request: TGI value, item COC(=O)[C@H]1[C@@H](C(C)C)O[C@@H](C(C)C)O[C@H]1C(F)(F)F > 100 µM

Record request: TGI value, item CSC(CC(=O)O)C(=O)O (configuration not stated) > 100 µM

Record request: TGI value, item O=[N+]([O-])c1ccc2nc(-c3ccccn3)c(-c3ccccn3)nc2c1 > 100 µM

Record request: TGI value, item O=[N+]([O-])c1ccc(S[C@@H]2[C@H]3c4c(-c5ccccc5)[nH]c(-c5ccccc5)c4[C@@H]2C[C@H]3Cl)cc1 > 100 µM

Record request: TGI value, item OCC1OC(n2cnc3cncnc32)C(O)C1O (configuration not stated) 1.84 µM

Record request: TGI value, item CC(CN(C)C)Nc1c2ccccc2nc2cccc([N+](=O)[O-])c12 (configuration not stated) 11.8 µM

Record request: TGI value, item COc1ccc2c(c1)C(=O)c1c-2n(CCCN=[N+]=[N-])c(=O)c2cc(N(C)C)ccc12 > 100 µM

Record request: TGI value, item O=C1NC(=O)/C(=C/c2ccc(S(=O)(=O)N/N=C/c3ccc(Cl)cc3)cc2)N1 > 100 µM

###

tested on: SK-OV-3 ovarian; experiment: NCI tumour cell line growth inhibition, 48 h
metric: TGI

compound	metric	data value
CCn1c(C(=O)N(C2CC2)C2CC2)cc2c3c(ncn3C)c(Nc3cc(C)n(C)n3)nc21	TGI	> 100 µM
O=C(Nc1cccc([N+](=O)[O-])c1)C(=O)C(C(=O)c1ccccc1-c1ccccc1)C1OC(=O)c2ccccc21 (stereo not given)	TGI	> 100 µM
Nc1nc(-c2ccccc2N=NN2CCCC2)nc2ccccc12	TGI	21.4 µM
Nc1cccc2c1C(=O)c1cccc(N)c1C2=O	TGI	> 100 µM

Record request: TGI value, item CCOC(=O)C1(Br)C(c2ccccc2)NC(=O)NC1(C)Br (stereo not given) > 100 µM

###

system: NCI/ADR-RES ovarian; test: NCI tumour cell line growth inhibition, 48 h
Rule: TGI under 30 µM gives rule not met, otherwise rule met.

Field: example entries. Status: answers known.
compound	system tested	category
O=C(CCN1CCCC1)Nc1ccc2sc3ccccc3c(=O)c2n1	NCI/ADR-RES ovarian	rule not met
CC(C)=CCC[C@@H](C)C1=C(Nc2ccccc2Cl)C(O)=C(C)C(=O)C1=O	NCI/ADR-RES ovarian	rule not met
C(=C\c1cccc(/C=C/c2ccccn2)n1)/c1ccccn1	NCI/ADR-RES ovarian	rule met
CCOP(=O)(OCC)C(Nc1cccc(F)c1)c1ccccc1 (stereo not drawn)	NCI/ADR-RES ovarian	rule met
OCC1OC(n2cnc3cncnc32)C(O)C1O (stereo not drawn)	NCI/ADR-RES ovarian	rule not met

Is reported TGI greater than or equal to 30 µM here: N=C1N(S(=O)(=O)c2ccccc2)[C@@H](Cc2ccccc2)[C@H](c2ccccc2)C1(c1ccccc1)c1ccccc1 rule met

Is reported TGI greater than or equal to 30 µM here: O=[N+]([O-])c1ccc(S[C@@H]2[C@H]3c4c(-c5ccccc5)[nH]c(-c5ccccc5)c4[C@@H]2C[C@H]3Cl)cc1 rule not met

Is reported TGI greater than or equal to 30 µM here: O=C1c2ccc([N+](=O)[O-])cc2-c2c1c1ccccc1c(=O)n2CCCNCCCNCCCn1c2c(c3ccc([N+](=O)[O-])cc3c1=O)C(=O)c1ccccc1-2 rule met
